# measured-target: Human recombinant PKCα (Homo sapiens, UniProt P17252)
# assay-method-text: Protein Kinase Cα Assay
# test-context: single compounds
readout-name: pIC50
Answer as the number alone; pIC50 is minus log10 of concentration in mol/L.

Looking for the measured pIC50 of CNCc1ccc2[nH]c(C)c(C3=C(c4cn(C)c5ccccc45)C(=O)NC3=O)c2c1 [Example 51] , can you help? 9.52

---

# measured-target: Human recombinant PKCβ1 (Homo sapiens, UniProt P05771)
# Sequence (P05771 whole entry): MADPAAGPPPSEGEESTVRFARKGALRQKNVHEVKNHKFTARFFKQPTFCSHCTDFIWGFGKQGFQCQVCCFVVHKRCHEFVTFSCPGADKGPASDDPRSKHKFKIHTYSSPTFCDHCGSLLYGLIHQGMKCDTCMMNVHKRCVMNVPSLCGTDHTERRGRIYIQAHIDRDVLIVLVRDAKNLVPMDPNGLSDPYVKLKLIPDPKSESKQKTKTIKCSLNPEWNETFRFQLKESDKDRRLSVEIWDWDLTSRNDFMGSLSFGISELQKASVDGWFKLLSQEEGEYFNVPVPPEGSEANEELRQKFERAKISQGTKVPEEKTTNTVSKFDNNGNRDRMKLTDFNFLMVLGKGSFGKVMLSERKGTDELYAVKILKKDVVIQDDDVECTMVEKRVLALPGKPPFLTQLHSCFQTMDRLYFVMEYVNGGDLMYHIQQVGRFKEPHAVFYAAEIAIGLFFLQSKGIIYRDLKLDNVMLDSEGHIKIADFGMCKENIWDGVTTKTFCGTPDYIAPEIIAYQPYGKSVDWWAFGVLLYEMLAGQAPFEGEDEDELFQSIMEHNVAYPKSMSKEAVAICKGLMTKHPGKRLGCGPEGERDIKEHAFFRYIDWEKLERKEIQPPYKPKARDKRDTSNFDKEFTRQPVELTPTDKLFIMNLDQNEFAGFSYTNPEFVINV
# assay-method-text: Protein Kinase Cβ1 Assay
# test-context: single compounds
This section presents compounds with their documented pIC50 values.
Answer as the number alone; pIC50 is minus log10 of concentration in mol/L.

given-smiles: Cc1cc2ccc(CN(C)C)cn2c1C1=C(c2c[nH]c3ccccc23)C(=O)NC1=O
measured-target: Human recombinant PKCβ1 (Homo sapiens, UniProt P05771)
pIC50: 7.74

Looking for the measured pIC50 of `Cc1ccc2c(C3=C(c4c(C(F)(F)F)[nH]c5ccc(CN(C)C)cc45)C(=O)NC3=O)c[nH]c2c1` , can you help? 9.05
